Entries and their measured GI50 follow.
# Tested on: SK-MEL-2
# experiment-description: NCI tumour cell line growth inhibition, 48 h
The source made the active and inactive calls. No stated cut-off is given here; in the data, active = GI50 up to about 1.1 µM and inactive = higher.

Incoming: Value lookup for GI50; key = COc1ccc(/C=N\NC(=O)Nc2cccc3ccccc23)cc1
Outgoing: 9.14 µM (inactive)

====

# System: K562
# experiment-description: NCI tumour cell line growth inhibition, 48 h
Activity calls are given as the source filed them. Rule as the data show it: active = GI50 up to about 1.1 µM and inactive = higher.
Choose one outcome from this list and give only that: 1 (yes) = active, 0 (no) = inactive

>>> print(df.to_string())
                           smiles_structure  class_assignment
0   CCCCCCCCNC(=S)N/C=C1\C(=O)Oc2ccccc2C1=O            0 (no)
1  CC1=NN(c2ccc(S(=O)(=O)O)cc2)C(=O)/C1=C/c1ccc(Cl)cc1.c1ccncc1            0 (no)
2  NC1=C(N2CCCCC2)C(=O)NC2=N/C(=C\c3ccccc3)C(=O)N21            0 (no)
3  CCCCCCCC(=O)O[C@H]1[C@H]2[C@@H](CC1(C)C)C(=O)[C@]13O[C@H]1C(=O)[C@]1(CO1)[C@]23C           1 (yes)

Incoming: Given NCCCCNOCCCN , state the outcome it received in this test.
Outgoing: 0 (no)

Incoming: Try this compound too: CCCCOc1ccc2c(c1)CC[C@@H]1[C@@H]2CC[C@]2(C)C(=O)N(CCCC)C(=O)C[C@@H]12
Outgoing: 0 (no)

Incoming: Try this compound too: O=C1NCN(c2ccccc2)C12CCN(CCCN1CCN(CCOC(c3ccccc3)c3ccccc3)CC1)CC2
Outgoing: 1 (yes)

Source of measurements: ChEMBL document CHEMBL1201862
